Listed here: items and their measured viability, T/C.
Tested on: 422866-222-R5-J1-PDC complex spheroids viability;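 further: spheroids exposed to compounds for 7 days; 100% = DMSO vehicle control viability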
Test: Anticancer human tumor 422866-222-R5-J1-PDC patient-derived pancreatic adenocarcinoma cell line growth inhibition [RAS]
Conditions: second compound 0.1 µM; first compound 0.1 µM; stronger effect = lower value
Text: RAS pathway inhibitors in Combinations in Complex Spheroids A high-throughput screen of multi-cell type tumor spheroids was designed to identify active combinations of RAS pathway inhibitors and targeted small molecules. Complex spheroids include a stromal component modeled by human endothelial cells (HUVEC) and fibroblasts modeled by human mesenchymal stem cells (MSCs). […] Compounds. […] If the clinical Cmax for an agent had not been determined, the highest concentration tested was 10 microM. […]

Here are 3 molecules together with their reported answers.
NC1c2ccccc2OC12CCN(c1cnc3c(N4CCCc5ncccc54)n[nH]c3n1)CC2 (centres undefined) + C=CC(=O)N1CCN(c2nc(OCC3CCCN3C)nc3c(F)c(-c4nc(N)cc(C)c4C(F)(F)F)c(Cl)cc23)C(C)C1
15.1%
CC(Nc1ccc2c(c1)OCCn1cc(N3C(=O)OCC3C(F)F)nc1-2)C(N)=O (centres undefined) + C#Cc1c(F)ccc2cc(O)cc(-c3ncc4c(N5CC6CCC(C5)N6)nc(OCC56CCCN5CC(F)C6)nc4c3F)c12
44.8%
CC1(O)CCCC1n1c(=O)c(C(F)F)cc2cnc(NC3CCN(S(C)(=O)=O)CC3)nc21 (centres undefined) + C=CC(=O)N1CCN(c2nc(OCC3CCCN3C)nc3c(F)c(-c4nc(N)cc(C)c4C(F)(F)F)c(Cl)cc23)C(C)C1
19.9%

For the next question, use this molecule.
*Q* // lookup viability, T/C for CC(C)NCC(C(=O)N1CCN(c2ncnc3c2C(C)CC3O)CC1)c1ccc(Cl)cc1 (centres undefined) + C=CC(=O)N1CCN(c2nc(OCC3CCCN3C)nc3c(F)c(-c4nc(N)cc(C)c4C(F)(F)F)c(Cl)cc23)C(C)C1
*A* 19.2%
